System: UACC-62 melanoma
Experiment: NCI tumour cell line growth inhibition, 48 h
Reported TGI values follow for various compounds

| smiles-input | unit-info | sign-qualifier | TGI |
| --- | --- | --- | --- |
| O=[n+]1c(CBr)c(CBr)n([O-])c2ccccc21 | µM | = | 27.4 |
| C[C@]12CC/C(=N\O)C=C1CC[C@@H]1[C@@H]2CC[C@]2(C)C(=N/O)/C(=C/c3cccnc3)C[C@@H]12 | µM | = | 10.4 |
| Cc1c(Cl)cccc1Nc1ncccc1C(=O)O | µM | > | 100 |

====

System: RPMI-8226 leukemia
Test: NCI tumour cell line growth inhibition, 48 h
This listing pairs compounds with measured TGI.
measured-property: TGI

| compound | study-target | measured-property | reported-measurement |
| --- | --- | --- | --- |
| COC(=O)c1c(OC)cccc1C(=O)O | RPMI-8226 leukemia | TGI | > 100 µM |
| Clc1ccc(Cc2nc3cc4ccccc4cc3[nH]2)cc1 | RPMI-8226 leukemia | TGI | > 100 µM |
| O=[n+]1c(CBr)c(CBr)n([O-])c2ccccc21 | RPMI-8226 leukemia | TGI | 8.39 µM |
| C=C1CC(OC)(C(O)C(=O)N[C@H]2OCO[C@H]3C2O[C@H](C[C@@H](COC)OC)C(C)(C)C3OC)O[C@H](C)[C@@H]1C (some centres undefined) | RPMI-8226 leukemia | TGI | < 0.00482 µM |
| CCCNC(=O)OCc1c(COC(=O)NCCC)c(-c2ccc(Cl)c(Cl)c2)n2c1CCC2 | RPMI-8226 leukemia | TGI | 24.4 µM |
| O=C1c2ccccc2-c2c1c1cc3c(cc1c(=O)n2CCCCl)OCO3 | RPMI-8226 leukemia | TGI | > 100 µM |
| O=C1CCC(NC(=O)c2ccccc2)C(=O)N1 (centres undefined) | RPMI-8226 leukemia | TGI | > 100 µM |
| CN1CN(c2ccccc2)C2(CCN(CCCC3(c4cccs4)OCCO3)CC2)C1=O | RPMI-8226 leukemia | TGI | > 100 µM |
| CC(=O)c1ccc(N(/C=C/C(=O)C(F)(F)F)CC(=O)c2ccc(Cl)c(Cl)c2)cc1 | RPMI-8226 leukemia | TGI | 36.6 µM |
| COC(=O)C(CC(=O)c1cc2c(cc1I)OCO2)Cc1cc(OC)c(OC)c(OC)c1I (centres undefined) | RPMI-8226 leukemia | TGI | > 100 µM |
| O=C1OC[C@@H]2Cc3c([nH]c4ccccc34)[C@@H](c3ccc(O)cc3)N12 | RPMI-8226 leukemia | TGI | > 80.9 µM |
| OCCNCO | RPMI-8226 leukemia | TGI | > 100 µM |
| C[C@@H]1Cc2c([nH]c3ccccc23)[C@@H](c2c(F)cc(/C=C/C(=O)O)cc2F)N1CC(C)(C)F | RPMI-8226 leukemia | TGI | 37.6 µM |
| COc1cccc(-c2nc(-c3cnccn3)n(Cc3ccccc3)n2)c1 | RPMI-8226 leukemia | TGI | > 100 µM |

====

Tested on: UO-31 renal
Assay: NCI tumour cell line growth inhibition, 48 h
Examples of molecules with documented TGI follow.
measured-property: TGI

| molecule | reported-measurement |
| --- | --- |
| Brc1ccc2c3c1[C@@H]1O[C@@H]1c1cccc(c1-3)[C@@H]1O[C@H]21 | 43.8 µM |
| NCCCC(N)C(=O)O (stereo unspecified) | > 100 µM |
| COC(=O)[C@@H](C)C[C@H](Cc1ccccc1)NC(=O)c1nc([C@@H](C[C@H](C(C)C)N(C)C(=O)[C@@H](NC(=O)[C@H]2CCCN2C)C(C)C)OC(C)=O)sc1C | > 25 µM |
| C1CN2N3CCCC23C1 (stereo unspecified) | > 100 µM |
| O=C1Oc2cc3c(c4cccc1c24)OCN(c1ccc(Cl)cc1)C3 | 32.2 µM |
| CC(=O)/C(=C/n1c(=S)sc2ccccc21)C(=O)Nc1ccccc1C | > 100 µM |
| OC(c1cccc(C(F)(F)F)c1)c1cnccc1NC1CCCCCC1 (stereo unspecified) | 2.97 µM |
| O=C(O)Cc1c[nH]c2ccc(F)cc12 | > 100 µM |
| O=c1c2cc(I)ccc2[nH]c(=S)n1Cc1ccccc1 | 1.83 µM |
| CN1CN(c2ccccc2)C2(CCN(CCCC3(c4cccs4)OCCO3)CC2)C1=O | > 100 µM |
| C[Si](C)(C)c1ccc(CC2(Cc3ccc([Si](C)(C)C)cc3)CCNC2)cc1 | 5.9 µM |
| O=C1c2ccccc2-c2c1c1cc3c(cc1c(=O)n2CCCCl)OCO3 | > 100 µM |
| COc1ccccc1NC(=O)c1ccc(/C=C/C(=O)c2nccn2C)cc1 | 0.714 µM |
| Cc1cccc(N(CCC#N)S(=O)(=O)c2ccccc2)c1 | > 100 µM |
| O=C(/C=C/c1cccs1)c1ccc(Cl)cc1 | > 100 µM |
| O=c1[nH]c(=O)n(C2CC(O)C(CO)O2)cc1C#Cc1c(F)c(F)c(F)c(F)c1F (stereo unspecified) | > 100 µM |
| Cc1oc2nc(N(C)C)n3nnnc3c2c1C | > 100 µM |
| COc1cccc(C2c3cc4c(cc3OC(N3CCCC3)C2C)OCO4)c1OC (stereo unspecified) | 7.51 µM |
| COc1cc2c(cc1OC)C(=O)/C(=C/c1cc(C)c(O)c(C)c1)C2 | > 100 µM |
| COc1cc2c(c(O)c1C)C(=O)C(Cl)=CC2=O | 21.6 µM |
| Cc1ccc(C(=O)Nc2ccc(CP(=O)(O)O)cc2)cc1NC(=O)c1cccc(NC(=O)Nc2cccc(C(=O)Nc3cc(C(=O)Nc4ccc(CP(=O)(O)O)cc4)ccc3C)c2)c1 | > 100 µM |
| COc1ccc2c(c1)C(=O)c1ccccc1C2 | > 100 µM |
| O=C1C(C=NCCc2c[nH]c3ccccc23)C(C(F)(F)F)=NN1c1nc2ccccc2s1 (stereo unspecified) | > 100 µM |
| O=C(O)Cc1ccc2nc(COC(=O)c3ccccc3)sc2c1 | > 100 µM |
| C=CC/C(C(=O)OC)=C(/C(=O)OC)N(CCC)CCC | > 100 µM |
| O=C1CCC(NC(=O)c2ccccc2)C(=O)N1 (stereo unspecified) | > 100 µM |
